Values were extracted from patent US20240092791A1.

For each of the molecules below, state its inhibition in vivo at 0.003 mg/kg.
# Test system: cch-evoked bronchoconstriction
# Assay Overview: Experimental bronchospasm (carbachol-induced bronchoconstriction, Konzett & Roessler)
# Assay type: in vivo, Male CD Sprague Dawley rats
# Condition Description: iv; rat, dose 3 μg/Kg intratracheal, 1 hour after administration, carbachol 80 μg/kg i.v.; read-out: Inhibition % (±s.e. mean) of cch-evoked bronchoconstriction
Phrase the answer as number then unit, nothing more needed.

                                   molecule  endpoint_result
0  CN(C)CCNc1ccc(NC(=O)c2cccc(CNc3ncc(-c4ccnc(N)n4)c4c3CCO4)c2)nc1 [Example 77]              79%
1  CN1C[C@H]2C[C@@H]1CN2c1ccc(NC(=O)c2cccc(CNc3ncc(-c4ccnc(N)n4)c4c3CCO4)c2)nc1 [Example 74]            77.7%
2  Nc1nccc(-c2cnc(NCc3cccc(C(=O)Nc4ccc(OC5CCNCC5)cn4)c3)c3c2OCC3)n1 [Example 71]            47.9%

Value of measured inhibition in vivo at 0.003 mg/kg for the entry CN1CCN(C)C(COc2ccc(NC(=O)c3cccc(CNc4ncc(-c5ccnc(N)n5)c5c4CCO5)c3)nc2)C1 (single isomer, unassigned) [Example 83] : 53.3%
